System: COLI
TEST_SUMMARY: Inhibiting minimum concentration (I.M.C.), activity relative to trimethoprime, MULLER HINTON COLI MEDIUM 4
Format: cell-based
STUDY_CONDITIONS: ratio to trimethoprime, corrected by molecular weight
QUANTITY_MEASURED: % activity to the base corrected by molecular weight

Examples with answers:
MOLECULE | RESULT
COc1cc(Cc2cnc(NC(C(C)(C)C)S(=O)(=O)O)nc2N)cc(OC)c1OC (centres unmarked) | 37%
COc1cc(Cc2cnc(NC(c3ccccc3)S(=O)(=O)O)nc2N)cc(OC)c1OC (centres unmarked) | 16.4%
CCOc1cc(C(Nc2ncc(Cc3cc(OC)c(OC)c(OC)c3)c(N)n2)S(=O)(=O)O)ccc1O (centres unmarked) [Example 24f] | 92%
COc1cc(Cc2cnc(NCS(=O)(=O)O)nc2N)cc(OC)c1OC | 0.4%
CCCC(Nc1ncc(Cc2cc(OC)c(OC)c(OC)c2)c(N)n1)S(=O)(=O)O (centres unmarked) | 10.8%

Any idea what % activity to the base corrected by molecular weight was measured for COc1cc(Cc2cnc(NC(c3ccccc3O)S(=O)(=O)O)nc2N)cc(OC)c1OC (centres unmarked) [Example 25d] ? 85%

What measured % activity to the base corrected by molecular weight goes with COc1cc(Cc2cnc(NC(c3cccs3)S(=O)(=O)O)nc2N)cc(OC)c1OC (centres unmarked) ? 123%

Reported % activity to the base corrected by molecular weight, molecule COc1cc(Cc2cnc(NC(C(C)C)S(=O)(=O)O)nc2N)cc(OC)c1OC (centres unmarked) : ____ 22%

Name the recorded % activity to the base corrected by molecular weight for COc1cc(Cc2cnc(NC(c3ccccc3Cl)S(=O)(=O)O)nc2N)cc(OC)c1OC (centres unmarked) . 23%

Need % activity to the base corrected by molecular weight of COc1cc(Cc2cnc(NC(c3cccc(Cl)c3)S(=O)(=O)O)nc2N)cc(OC)c1OC (centres unmarked) , thanks. 20%

What value of % activity to the base corrected by molecular weight has been recorded for this entry: COc1cc(Cc2cnc(NC(c3ccco3)S(=O)(=O)O)nc2N)cc(OC)c1OC (centres unmarked) 112%

Using the record for COc1cccc(C(Nc2ncc(Cc3cc(OC)c(OC)c(OC)c3)c(N)n2)S(=O)(=O)O)c1 (centres unmarked) , report its % activity to the base corrected by molecular weight. 29%

// % activity to the base corrected by molecular weight lookup, key: COc1cc(Cc2cnc(NC(c3cccc([N+](=O)[O-])c3)S(=O)(=O)O)nc2N)cc(OC)c1OC (centres unmarked) 31%

Looking for the measured % activity to the base corrected by molecular weight of COc1cc(Cc2cnc(NC(c3ccc4c(c3)OCO4)S(=O)(=O)O)nc2N)cc(OC)c1OC (centres unmarked) , can you help? 26%
